- assay_summary: PAMPA permeability
- Type: in vitro ADME
- assay_context: PAMPA, Donor pH 6.2, Acceptor pH 7.4; read-out: PAMPA Pe
attribute_measured: Papp (×10⁻⁶ cm/s)

1) O=C(Oc1coc(CSc2ncccn2)cc1=O)c1ccc([N+](=O)[O-])cc1 [Compound 6] ... 240

----------
- target_or_test_system: APJ (Homo sapiens, UniProt P35414)
- Sequence (P35414 1-380): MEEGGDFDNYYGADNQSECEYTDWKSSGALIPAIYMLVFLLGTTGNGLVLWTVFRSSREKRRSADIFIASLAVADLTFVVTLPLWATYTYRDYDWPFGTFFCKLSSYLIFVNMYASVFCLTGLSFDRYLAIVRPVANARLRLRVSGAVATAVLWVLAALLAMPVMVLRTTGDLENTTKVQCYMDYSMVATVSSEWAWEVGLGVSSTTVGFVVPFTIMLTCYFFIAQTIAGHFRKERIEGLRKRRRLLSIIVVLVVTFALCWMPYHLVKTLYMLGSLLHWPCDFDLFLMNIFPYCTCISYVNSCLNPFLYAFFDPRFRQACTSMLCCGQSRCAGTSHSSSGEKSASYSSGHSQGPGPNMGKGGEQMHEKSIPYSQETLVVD
- assay_summary: APJ DiscoveRx PathHunter β-arrestin assay (antagonism of apelin-13)
- Assay type: cell-based
- Set-up: host or cells: Angiotensin II receptor-like 1 (AGTRL-1) Cell Line (PathHunter)
- assay_context: β-arrestin assay, n = 4 unless noted in parentheses; read-out: APJ Potency IC50 (μM) Ave. ± S.E.M.
attribute_measured: IC50 (µM)

1. O=C(Oc1coc(CSc2ncccn2)cc1=O)c1ccc(Br)cc1 ... 18.2
2. Cc1ccnc(SCc2cc(=O)c(OC(=O)c3ccc(S(=O)(=O)N4CCCC4)cc3)co2)n1 ... 39.9
3. Cc1cc(C)nc(SCc2cc(=O)c(OC(=O)c3ccc(Cl)c([N+](=O)[O-])c3)co2)n1 ... 5.45
4. O=C(Oc1coc(CSc2ncccn2)cc1=O)c1ccc(C(F)(F)F)cc1 ... 29
5. Cc1ccnc(SCc2cc(=O)c(OC(=O)c3ccc(C(F)(F)F)cc3)co2)n1 ... 20.6
6. O=C(Oc1coc(CSc2ncccn2)cc1=O)c1ccc(Cl)c([N+](=O)[O-])c1 ... 6.2
7. O=C(Oc1coc(CSc2ncccn2)cc1=O)c1cc([N+](=O)[O-])ccc1Cl ... 51
8. Cc1ccnc(SCc2cc(=O)c(OC(=O)c3cc(Cl)ccc3[N+](=O)[O-])co2)n1 ... 58.8
